Molecular target: human STING (HAQ) (Homo sapiens (Human), UniProt Q86WV6, G230A/H232R/R293Q)
Sequence (Q86WV6 149-345 G230A/H232R/R293Q): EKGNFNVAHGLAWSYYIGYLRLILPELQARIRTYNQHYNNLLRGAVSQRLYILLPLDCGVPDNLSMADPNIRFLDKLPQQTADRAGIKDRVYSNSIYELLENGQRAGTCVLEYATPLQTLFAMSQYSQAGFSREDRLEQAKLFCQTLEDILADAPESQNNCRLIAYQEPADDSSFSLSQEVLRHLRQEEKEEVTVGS
Assay: Differential scanning fluorimetry (DSF), huSTING (HAQ)
Assay type: binding
Conditions: compound 100 μM, 2 μM protein, Tm with ligand minus Tm of protein alone (1% DMSO)
Label key: criterion met means ΔTm at 100 µM under 20 °C; criterion not met means ΔTm at 100 µM of 20 °C or more.

COc1c(C(N)=O)ccc2c1nc(-c1c(C(=O)O)sc3cccc(Cl)c13)n2CCn1c(-c2c(C(=O)O)sc3cccc(Cl)c23)nc2c(OC)c(C(N)=O)ccc21 (single isomer, unassigned) [Example 22.1]    criterion not met
NC(=O)c1ccc2c(c1)nc(-c1c(C(=O)O)sc3cccc(C(F)(F)F)c13)n2CCn1c(-c2c(C(=O)O)sc3cccc(C(F)(F)F)c23)nc2cc(C(N)=O)ccc21 (single isomer, unassigned) [Example 19.1]    criterion not met
N#Cc1cccc2sc(C(=O)O)c(-c3nc4cc(C(N)=O)ccc4n3CCn3c(-c4c(C(=O)O)sc5cccc(C#N)c45)nc4cc(C(N)=O)ccc43)c12 [Example 17]    criterion met
CCOc1cccc2sc(C(=O)O)c(-c3nc4cc(C(N)=O)ccc4n3CCn3c(-c4c(C(=O)O)sc5cccc(OCC)c45)nc4cc(C(N)=O)ccc43)c12 [Example 24]    criterion met
Cc1cccc2sc(C(=O)O)c(-c3nc4cc(C(N)=O)ccc4n3CCn3c(-c4c(C(=O)O)sc5cccc(C)c45)nc4cc(C(N)=O)ccc43)c12 (single isomer, unassigned) [Example 15.1]    criterion not met
